meta.source: patent US20140289906A1

Assay: 14C assay: 14CO2 capture from [14C]-carboxyl-labeled dicamba with IPTG-induced recombinant E. coli cells
Details: IPTG-induced recombinant E. coli cells; 14CO2 from [14C]-carboxyl-labeled dicamba
Quantity measured: Dicamba Decarboxylase Activity

Molecule	Quantity measured	Experimental value
77 (protein, Burkholderia xenovorans) MALIDLHAHAPHPGYYNQHPHWGPFFERHEDGDVKLRVGDWILTLGSPERKALVRAGKGPTVEEYQARWADPKVRLAGMDAAGQNAQVVSVPSHCYMYWAEKEFSVPFATKVNDTFAEYCSAAPDRLMFWAHAALNAPEQAALELRRACTELGAKGLVAGGANFGGLEFDSPELDPVWKVLCDLDLPMFIHGYNQSVTWGKKANDDRYETTAIVGMQYDETRCFWNLVCGGVLDRFPGLKVYITHGGGYVPYQLGRLAQCNGNLDVAHNKKPVLEYLKNNFYFDVELHEVPMRQALIDIIGADRVLYGSNFGGSDAVRHDLTEGLRLSDDDLQKIRWKNACKLLHLDPAKIGEPAKKQAVSA	Dicamba Decarboxylase Activity	No
46 (protein, listed as Rhodococcus opacus) MARIITLEEHYLDPAIAAASAPLARELSPDFAAAYDPASGLSYTPSAQVLQDLGQRRIADMDTHGISMQVLSCLTTQQVPADVAPDLVRAANDTAAAAVRAHPDRFAAFAALPTTAPDAAATELARCIDDLGFVGTMINGRTDGEFLDAPRFDPILATAAARNVPIYLHPAVPPRATSDSNYAGLAPLVTARLQTSAWGWHQETAVHFLHLVLSGVLDRYPNLQFILGHWGEMIPFYLDRLDEALPQAVTNLDRTISDYVRENVYITPSGMFNQAQLQYCVETLGVDRILYSVDYPFIGNDGAVSFLDEANLPDEAKHQIAHQNTEKLLGL	Dicamba Decarboxylase Activity	High
107 (protein, listed as Rhodopseudomonas palustris) MAIIDIHGHYTTAPKALEDWRNRQIAGIKDPSVMPKVSELKISDDELQASIIENQLKKMQERGSDLTVFSPRASFMAHHIGDFNVSSTWAAICNELCYRVSQLFPDNFIGAAMLPQSPGVDPKTCIPELEKCVKEYGFVAINLNPDPSGGHWTSPPLTDRIWYPIYEKMVELEIPAMIHVSTSCNTCFHTTGAHYLNADTTAFMQCVAGDLFKDFPELKFVIPHGGGAVPYHWGRFRGLAQEMKKPLLEDHVLNNIFFDTCVYHQPGIDLLNTVIPVDNVLFASEMIGAVRGIDPRTGFYYDDTKRYIEASTILTPEEKQQIYEGNARRVYPRLDAALKAKGK	Dicamba Decarboxylase Activity	No
30 (protein, Enterobacter aerogenes) MARGKIALEEHVSTPENNRLWDSTGEANRNGSEYMQDVERRLLDRSIQLEEMAQRNIDHVILSLTSPGAQSILDKAKAVSFARDTNDFIVDNYVKPNPDKFSAFATLALQNPEAAAEELERAVKKLGMKGALINGYTNVKDSEHGLYLDDESMLVFWDKVNELNVPVYLHPREPLEGPARGIYTGYESLIGSAWGFAQETAVHAIRLMMSGLFDRYPNLNLVLGHLGEGLVHMLPRTQHRLYRQRFGCGLGKAEKPLMHYLQNNFIVTTSGHFNTHSLNNAIEVMGADRVMFSVDYPYEDIHQACDWFDPLEMDEGLKEKIAWGNASRVFNIK	Dicamba Decarboxylase Activity	High
